- target-desc: MMP-9 (Homo sapiens)
- Construct: purchased Sino Biological 10327-HNAH
- Sequence (P14780 107-707 limits assumed): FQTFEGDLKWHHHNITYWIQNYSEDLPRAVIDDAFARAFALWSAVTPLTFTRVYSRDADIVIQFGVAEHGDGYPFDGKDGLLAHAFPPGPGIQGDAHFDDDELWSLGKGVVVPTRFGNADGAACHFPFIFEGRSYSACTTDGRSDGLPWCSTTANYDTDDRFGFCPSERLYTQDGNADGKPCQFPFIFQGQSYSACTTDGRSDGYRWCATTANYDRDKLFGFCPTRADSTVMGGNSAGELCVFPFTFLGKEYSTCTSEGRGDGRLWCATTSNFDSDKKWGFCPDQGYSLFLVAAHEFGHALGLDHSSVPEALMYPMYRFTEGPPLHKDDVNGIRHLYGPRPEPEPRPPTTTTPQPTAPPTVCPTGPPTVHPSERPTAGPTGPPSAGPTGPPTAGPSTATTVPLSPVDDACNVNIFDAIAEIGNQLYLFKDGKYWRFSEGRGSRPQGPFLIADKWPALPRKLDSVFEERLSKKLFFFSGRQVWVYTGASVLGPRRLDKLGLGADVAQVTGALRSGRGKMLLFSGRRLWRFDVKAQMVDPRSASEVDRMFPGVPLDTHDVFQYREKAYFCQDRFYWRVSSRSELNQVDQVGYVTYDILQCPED
- protocol-summary: MMP-9 inhibition assay (fluorogenic peptide substrate)
- Format: biochemical
- Parameters: scale not given here
- run-conditions: MMP-9; concentration 7.81 µM
Give measured remaining enzyme activity (% of control) for each item. Keep answers brief.
Simply state the number, no unit and no words.

What remaining enzyme activity (% of control) value was documented for this compound, Cn1c(O)nc2cc(C(=O)NCCSCC(=O)NCC34CC5CC(CC(C5)C3)C4)cnc21 [66+826 Linker 24] ?
100.00

What do we get for Cc1cc(=O)[nH]c(-n2nc(C)c(CCC(=O)NCCSCC(=O)NCCNC(=O)c3cnc4c(c3)nc(O)n4C)c2C)n1 [693+826 Linker 24] ?
95.86

// query: Cn1c(O)nc2cc(C(=O)NCCOCCOCCNC(=O)CNC(=O)NC34CC5CC(CC(C5)C3)C4)cnc21 [66+826 Linker 10]
90.00

What about this compound? Cc1cc(=O)[nH]c(-n2nc(C)c(CCC(=O)NCCCCCCCCNC(=O)c3cnc4c(c3)nc(O)n4C)c2C)n1 [693+826 Linker 4]
93.00

What about Cn1c(O)nc2cc(C(=O)NCCCC/C=C/C(=O)CC(=O)NCC34CC5CC(CC(C5)C3)C4)cnc21 [66+826 Linker 12] ?
103.45

What about this compound? Cn1c(O)nc2cc(C(=O)NCC34CC5CC(CC(C5)C3)C4)cnc21 [66+826 Linker 1]
80.18

Same question for Cn1c(O)nc2cc(C(=O)NCCCCCCCCNC(=O)CNC(=O)NC34CC5CC(CC(C5)C3)C4)cnc21 [66+826 Linker 4] please.
98.12

The reported measurements were obtained from paper PMC10023787.
